B1: MFF (parent)
chain: DDLTVVDAASLRRQIIKLNRRLQL

- Variants of: B1
- Test Summary: protein stability index of a GFP-peptide fusion (GPS, HEK-293T) (PSI 1-6); higher = more stable;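 further: lentivirally expressed fusions sorted by FACS into six bins by GFP to DsRed ratio, PSI derived from sequencing read proportions per bin multiplied by bin number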
- Assay Context: c terminus: a fixed tail appended
Measurement Name: protein stability index
Answers are plain numbers.

Please state protein stability index for every variant in the list that follows.
1. L18W
2. I16Y
3. D1M
4. L11S
5. L24W
6. V6T

1. 1.84
2. 2.97
3. 1.98
4. 3.73
5. 1.94
6. 2.34

Please state protein stability index for every variant in the list that follows.
1. A8Y
2. Q23P
3. V6G
4. L3W

1: 1.3; 2: 2.62; 3: 3.34; 4: 1.48

Please state protein stability index for every variant in the list that follows.
1. R20C
2. L3C
3. N19Y
4. A9I
5. A9Y

1. 2.06
2. 2.33
3. 1.85
4. 2.79
5. 2.48
